Here the recorded EC50 is given for each entry.
# assay system: human GPR40 (Homo sapiens)
# Sequence (O14842 whole entry): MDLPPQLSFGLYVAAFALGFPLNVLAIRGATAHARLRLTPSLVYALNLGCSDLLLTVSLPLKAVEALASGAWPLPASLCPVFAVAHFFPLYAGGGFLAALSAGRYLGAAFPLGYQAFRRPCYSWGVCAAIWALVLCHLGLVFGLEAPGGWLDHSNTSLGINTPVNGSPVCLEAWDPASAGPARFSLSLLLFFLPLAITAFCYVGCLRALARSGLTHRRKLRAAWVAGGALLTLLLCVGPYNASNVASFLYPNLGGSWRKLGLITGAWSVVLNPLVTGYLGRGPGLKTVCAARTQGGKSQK
# experiment summary: GPR40 calcium flux assay, HEK293 cells stably expressing human GPR40
# measurement parameters: transfected HEK293 cells stably expressing human GPR40, Fluo 8 dye, read-out: hGPR40 Ca2+ Assay EC50
State just the number; it will be interpreted in nM.

COc1ccc(F)c([C@H]2CC[C@H](COc3cc([C@@H](CC(=O)O)C4CC4)ccn3)CC2)c1 ... 0.2
COc1ccc(F)c(C2CCC(COc3cccc(C(CC(=O)O)C4CC4)c3)CC2)c1 (centres unmarked) ... 133
COc1ccc(F)c(C2CCC(COc3cccc([C@H](C4CC4)C(F)C(=O)O)c3)CC2)c1 (some centres unmarked) ... 0.5
COc1ccc(F)c([C@H]2CC[C@@H](COc3cncc(C(CC(=O)O)C4CC4)c3)CC2)c1 (some centres unmarked) ... 226
COc1ccc(F)c(C2CCC(COc3cccc([C@@H](CC(=O)O)C4CC4)c3)C(CC(C)C)C2)c1 (some centres unmarked) ... 17.9
COc1cccc(C2CCC(COc3cccc([C@H](C4CC4)C(C)(F)C(=O)O)c3)CC2)c1 (some centres unmarked) ... 0.25
COc1ccc(F)c(C2=CCC(COc3cccc([C@H](C4CC4)[C@@](C)(F)C(=O)O)c3)CC2)c1 (some centres unmarked) ... 0.18

In the following, a different compound is considered.
Exam item: Using the record for COc1cc([C@H]2CC[C@H](COc3cccc([C@H](C4CC4)C(C)(F)C(=O)O)c3)CC2)c(F)cn1 (some centres unmarked) , report its EC50.
Marked response: 0.25

meta.source: patent US10988433B2
